# Test system: RXF 393 renal
# TEST METHOD NOTES: NCI tumour cell line growth inhibition, 48 h
# TGI values compiled below
# value in µM; strip the unit string

Examples with their reported TGI follow.
Give its TGI value. Item: COc1ccc2nc3ccc(OC)cc3c(S(=O)Cc3ccc([N+](=O)[O-])cc3)c2c1 (configuration not stated)
28.6

Give its TGI value. Item: COC1/C=C\C=C(/C)C(=O)NC2=CC(=O)C(NCCCl)=C(CC(C)CC(OC)C(O)C(C)/C=C(/C)C1OC(N)=O)C2=O (configuration not stated)
1.2

Give its TGI value. Item: O=C(CCN1CCCCC1CCO)Nc1ccc2c(c1)C(=O)c1ccc(NC(=O)CCN3CCCCC3CCO)cc1C2=O (configuration not stated)
6.46

Give its TGI value. Item: CSc1n[nH]c(N)c1C(=O)Nc1ccc(Cl)cc1
60.7

Give its TGI value. Item: Cc1c(Cl)ccc2c1NC(=O)C2(O)CC(=O)c1ccc(Cl)cc1Cl (configuration not stated)
48.9

Give its TGI value. Item: O=C1Nc2ccc(Cl)cc2/C1=C\c1c(-c2ccc(F)cc2)nc2ccccn12
4.2

Give its TGI value. Item: Nc1ccccc1C#C/C=C\C#Cc1ccc(F)cc1F
43.2

Give its TGI value. Item: CC1=C/C(=C(\c2ccc(N(C)C)cc2)c2ccc([N+](C)(C)C)cc2)C=CC1=[N+](C)C
25.4

New cases:
Give its TGI value. Item: Cc1cc(Br)c(N2C3=C(CC4=C2CCCC4=O)C(=O)CCC3)c(Br)c1
84.7

Give its TGI value. Item: Cn1ncc2c(Nc3ccc(Br)cc3)nc(Nc3ccc(Br)cc3)nc21
7.57

Give its TGI value. Item: COc1ccc2c(O)c3[n+](cc2c1OC)CCc1cc2c(cc1-3)OCO2
85.7

Give its TGI value. Item: CN(C)CC1CCC/C(=C\c2ccc(N(C)C)cc2)C1=O (configuration not stated)
21.2

Give its TGI value. Item: CCC1(O)C=CC(=O)C=C1
38.2

###

# Test system: UACC-62 melanoma
# TEST METHOD NOTES: NCI tumour cell line growth inhibition, 48 h; in the data active = GI50 below about 0.43 µM; inactive = the rest
Select the matching outcome among active, inactive

Just curious, what result did O=C1C=C(SCCO)C(=O)c2ccccc21 get here?
inactive

Just curious, what result did O=C1C(=O)c2ccc(Br)cc2-c2cc(Br)ccc21 get here?
inactive

Just curious, what result did COC1/C=C/O[C@@]2(C)Oc3c(C)c(O)c4c(O)c(cc(O)c4c3C2=O)NC(=O)/C(C)=C\C=C\[C@H](C)C(O)[C@@H](C)[C@@H](O)[C@@H](C)[C@H](OC(C)=O)[C@@H]1C (some centres undefined) get here?
inactive

Just curious, what result did O=C1OCC(c2ccc(O)c(O)c2)=C1c1cc(O)c(O)c(O)c1 get here?
inactive

New cases:
Just curious, what result did O=C(CC12CC3CC(CC(C3)C1)C2)NCCOCCOCCNC(=O)c1cc2c(o1)C(=O)c1ccccc1C2=O get here?
active

Just curious, what result did OCC(O)CC[CH2][Sn]([c]1ccccc1)([c]1ccccc1)[c]1ccccc1 (centres undefined) get here?
inactive

Just curious, what result did CCN(CC)c1ccc(NC(C(=O)c2ccccc2)c2ccccc2)cc1 (centres undefined) get here?
inactive

Just curious, what result did O=C(c1ccccc1)c1ccc(-c2ccc(O)cc2)cc1 get here?
inactive

Just curious, what result did CC1(C)CCC(S(=O)(=O)c2ccc3c(c2)/C(=N\O)c2cc(S(=O)(=O)N4CCC(O)(c5cccc(C(F)(F)F)c5)CC4)ccc2-3)CC1 get here?
active
